Measured Quantity: melting point

melting point measured on CCOc1nc(-c2c(F)cccc2F)ncc1-c1ccc(-c2ccc(C(F)(F)F)cc2)cc1 [Compound 1.59] = 170 to 172 °C

Item: Fc1cccc(Cl)c1-c1ncc(-c2ccc(-c3ccc(OC(F)(F)F)cc3)cc2)cn1 [Compound 1.12] | melting point: 160 to 163 °C

melting point for Clc1ccc(-c2ccc(-c3cnc(-c4c(Cl)cccc4Cl)nc3)cc2)cc1 [Compound 1.8] is 205 to 220 °C

// sample Fc1cccc(F)c1C1N=CC=C(c2ccc(Br)cc2)N1Cl (centres unmarked) [Compound 3.354] , its melting point was 146 to 148 °C

Recorded result, Fc1cccc(F)c1-c1ncc(-c2ccc(-c3cccc(Cl)c3)cc2)cn1 [Compound 1.37] , melting point: 178 to 179 °C

Summary for this molecule, Clc1ccc(-c2ccc(-c3cnc(-c4c(Cl)cccc4Cl)nc3)cc2)cc1Cl [Compound 1.6] : melting point is 224 to 226 °C

Lookup result for Fc1cccc(F)c1-c1nccc(-c2ccc(-c3ccccc3C(F)(F)F)cc2)n1 [Compound 2.12] ; measured melting point: 179 to 180 °C

melting point in this record for COc1ccccc1-c1ccc(-c2cnc(-c3c(F)cccc3F)nc2)cc1 [Compound 1.20] : 150 to 151 °C

Data point: Fc1cccc(F)c1-c1ncc(-c2ccc(-c3ccc(-c4ccccc4)cc3)cc2)cn1 [Compound 1.22] ; melting point = > 260 °C

Lab note: measured melting point of Fc1cccc(F)c1-c1ncc(-c2ccc(-c3ccc(C(F)(F)F)cc3)cc2)cn1 [Compound 1.2] was 252 to 254 °C

Given item Fc1cccc(F)c1-c1nccc(-c2ccc(-c3cccc(Cl)c3)cc2)n1 [Compound 2.10] , the value recorded as its melting point is 82 to 83 °C

Form field melting point, entry Fc1cccc(F)c1-c1ncc(-c2ccc(-c3ccc(Cl)cc3)cc2)cn1 [Compound 1.25] : 220 to 222 °C

For record Fc1cccc(F)c1-c1ncc(-c2ccc(-c3cccc(C(F)(F)F)c3)cc2)cn1 [Compound 1.18] the listed melting point is 217 to 218 °C

Documented melting point of CCOc1nc(-c2c(F)cccc2F)ncc1-c1ccc(-c2cc(Cl)cc(Cl)c2)cc1 [Compound 1.60] : 154 to 155 °C

In plain terms, Fc1cccc(F)c1-c1nccc(-c2ccc(-c3ccc(Cl)c(Cl)c3)cc2)n1 [Compound 2.6] has a documented melting point of 134 to 140 °C

What the record says about Fc1cccc(F)c1-c1ncc(-c2ccc(-c3ccc(OC(F)(F)F)cc3)cc2)cn1 [Compound 1.19] : melting point is 215 to 216 °C

Quick note, melting point for COc1ccc(-c2ccc(-c3cnc(-c4c(F)cccc4Cl)nc3)cc2)cc1 [Compound 1.15] landed at 176 to 179 °C

###

Record form. Attribute: melting point. Fill in for each entry.

According to the records, this compound Fc1cccc(F)c1-c1nccc(-c2ccc(-c3ccc(C(F)(F)F)cc3)cc2)n1 displays melting point of 141 to 142 °C

Query CC(C)(C)c1ccc(-c2ccc(-c3cnc(-c4c(Cl)cccc4Cl)nc3)cc2)cc1 yields melting point of 200 to 202 °C

get_value(item= Fc1cccc(F)c1-c1nccc(-c2ccc(-c3ccc(Cl)cc3Cl)cc2)n1 , readout=melting point) returns 86 to 87 °C

// melting point value for CCOc1nc(-c2c(F)cccc2F)ncc1-c1ccc(-c2ccc(OC(F)(F)F)cc2)cc1 : 146 to 147 °C

Entry under test: CCSc1nc(-c2c(F)cccc2F)ncc1-c1ccc(-c2ccc(OC(F)(F)F)cc2)cc1 . Its melting point was 127 to 128 °C

Quick note, melting point for Fc1ccc(-c2ccc(-c3cnc(-c4c(F)cccc4Cl)nc3)cc2)cc1Cl landed at 186 to 189 °C

GET /value?item= Fc1cccc(F)c1-c1nccc(-c2ccc(-c3ccc(OC(F)(F)F)cc3)cc2)n1 &field=melting point returns 102 to 103 °C

For reference, reported melting point for CN(C)c1nc(-c2c(F)cccc2F)ncc1-c1ccc(-c2ccc(OC(F)(F)F)cc2)cc1 stands at 146 to 147 °C

Per the record, CCNc1nc(-c2c(F)cccc2F)ncc1-c1ccc(-c2cc(Cl)cc(Cl)c2)cc1 has melting point of 202 to 203 °C

Data point: Fc1cccc(F)c1-c1nccc(-c2ccc(Br)cc2)n1 [Compound P1.5] ; melting point = 130 to 131 °C

Looking up FC(F)(F)Oc1ccc(-c2ccc(-c3cnc(-c4c(Cl)cccc4Cl)nc3)cc2)cc1 , I found its melting point recorded as 179 to 181 °C

According to the records, this compound Fc1cccc(F)c1-c1ncc(-c2ccc(-c3ccccc3C(F)(F)F)cc2)cn1 displays melting point of 100 to 102 °C

Form: compound = CN(C)c1nc(-c2c(F)cccc2F)ncc1-c1ccc(-c2cc(Cl)cc(Cl)c2)cc1 ; melting point = 200 to 202 °C

// sample Fc1cccc(F)c1-c1nccc(-c2ccc(-c3ccc(-c4ccccc4)cc3)cc2)n1 , its melting point was 258 to 259 °C

The reported measurements were obtained from patent US6686469B2.
